Where do these numbers come from? They come from patent US20260265316A1.

Test system: circulating gluten-specific CD4+ T cells in whole blood of HLA-DQ2+ CeD patients
assay_procedure: Whole blood IL-2 cytokine release assay, HLA-DQ2+ CeD participants
Format: cell-based, human
settings: HLA-DQ2+ donors; whole blood, 24 hours
measurement_type: IL-2 response (in words)

substance	result
H-PSGEGSFQPSQENPQ-NH2 [BB4a]	no or low response
H-PQPEQPEQPFPEQPQ-NH2 [BB2a]	no or low response
Ac-QLQPFPQPELPYPQPELPYPQPELPYPQPQP-NH2 [BB1]	potent IL-2 responses
H-PQQPFPQPEQPFPWQPQ-NH2 [BB3a]	potent IL-2 responses

----------
measurement_type: median percentage of soluble material recovered from the patch backing film

substance	result
Ac-QLQPFPQPELPYPQPELPYPQPELPYPQPQP-NH2 [BB1]	93-100%
H-PQPEQPEQPFPEQPQ-NH2 [BB2a]	above 80%
H-PQQPFPQPEQPFPWQPQ-NH2 [BB3a]	93-100%
H-PSGEGSFQPSQENPQ-NH2 [BB4a]	above 80%
